Kindly supply the reported pKb values for the records listed here.
Biological target: Muscarinic acetylcholine receptor M4 (Homo sapiens) (UniProt P08173)
Sequence (P08173 whole entry): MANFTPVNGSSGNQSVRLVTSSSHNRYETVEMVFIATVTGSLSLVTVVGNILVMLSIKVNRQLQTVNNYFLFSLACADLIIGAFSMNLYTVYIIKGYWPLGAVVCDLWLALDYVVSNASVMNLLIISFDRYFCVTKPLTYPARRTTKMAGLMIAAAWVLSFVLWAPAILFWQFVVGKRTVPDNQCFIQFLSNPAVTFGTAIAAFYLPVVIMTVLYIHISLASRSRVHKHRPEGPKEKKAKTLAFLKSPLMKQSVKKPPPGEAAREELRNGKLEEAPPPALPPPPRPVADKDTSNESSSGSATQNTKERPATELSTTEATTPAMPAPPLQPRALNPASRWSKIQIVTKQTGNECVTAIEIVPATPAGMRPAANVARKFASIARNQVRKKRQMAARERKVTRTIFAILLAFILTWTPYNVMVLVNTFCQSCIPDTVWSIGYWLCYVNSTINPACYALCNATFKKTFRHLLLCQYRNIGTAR
Assay: Antagonist potency at muscarinic receptor M4 in rabbit vas deferens
Assay type: functional, tissue-based
Settings: Oryctolagus cuniculus, target entry is the homologue from another species

Worked examples, 7 compounds total:
structureSmiles	measuredProperty	reading
COc1ccccc1CNCCCCCC(=O)Nc1ccc(-c2ccc(NC(=O)CCCCCNCc3ccccc3OC)cc2)cc1	pKb	5.21
COc1ccccc1CNCCCCCC(=O)N1CCC(CCCC2CCN(C(=O)CCCCCNCc3ccccc3OC)CC2)CC1	pKb	< 5
COc1ccccc1CNCCCCCCN1CCC(CCCC2CCN(CCCCCCNCc3ccccc3OC)CC2)CC1	pKb	5.64
COc1ccccc1CNCCCCCCNc1ccc(Cc2ccc(NCCCCCCNCc3ccccc3OC)cc2)cc1	pKb	< 5
COc1ccccc1CNCCCCCC(=O)N1CCC(CC2CCN(C(=O)CCCCCNCc3ccccc3OC)CC2)CC1	pKb	5.37
COc1ccccc1CNCCCCCC(=O)Nc1ccc(Cc2ccc(NC(=O)CCCCCNCc3ccccc3OC)cc2)cc1	pKb	< 5
COc1ccccc1CNCCCCCCN1CCC(CCC2CCN(CCCCCCNCc3ccccc3OC)CC2)CC1	pKb	5.56

Moving on to the next compound.
stdin: Annotate the compound COc1ccccc1CNCCCCCC(=O)Nc1ccc(CCc2ccc(NC(=O)CCCCCNCc3ccccc3OC)cc2)cc1 with its measured pKb.
stdout: < 5
